# Test system: HCC-2998 colon
# Experimental Protocol: NCI-60 one-dose screen, 48 h (100 = growth as untreated, 0 = no growth, -100 = all killed)
# Test Conditions: 10 µM unless noted
Compounds without any hit were thinned out: in the full panel of roughly 83,000, 20% have a hit.
Kindly apply the following: label 1 if growth is less than 30%, label 0 in every other case.

                                    compound  class_label
 0  COC(=O)[C@]1(C)CCC[C@]2(C)c3ccc(C(C)C)cc3C(=O)[C@@H](Br)[C@@H]12      label 0
 1  O=[N+]([O-])c1ccc(C2N(Cc3ccc(Cl)cc3)CCN2Cc2ccc(Cl)cc2)cc1      label 0
 2        O=C(O)c1ccc2c(c1)C(=O)c1ccccc1C2=O      label 0
 3   CC(C)(C)CC(C)(C)c1ccc(OCCOCCSC(=N)N)cc1      label 1
 4            c1ccc(-c2cc3cc4ccccc4cn3c2)cc1      label 0
 5  CCN(CC)CC(O)CNc1ccc(NCC2CO2)c2c1C(=O)c1ccccc1C2=O (centres undefined)      label 1
 6  Cc1ccccc1NC(=O)Cc1csc2[n+]1C(=O)/C(=C/c1ccc([N+](=O)[O-])cc1)S2      label 0
 7      CCc1cnc2ccccc2c1/C=C/c1ccc(N(C)C)cc1      label 0
 8  CCCCCCCCCCCCCCCc1ccc(C(=O)C[n+]2ccccc2)cc1      label 1
 9  Cc1nc([N+](=O)[O-])c(Sc2nncc(-c3ccccc3)n2)n1C      label 0
10   Cc1nc(Sc2nc3ccc([N+](=O)[O-])cc3s2)sc1C      label 0
11  COc1ccc2c(c1OC)OCC(CN(C)C)C2=O (centres undefined)      label 0
12  O=C(Nc1cccc(C(F)(F)F)c1)Oc1ccc(Cl)c2cccnc12      label 0
13  N#CC(I)CS(=O)(=O)c1ccccc1 (centres undefined)      label 0
14  CCCCC(CCc1ccc([N+](=O)[O-])cc1)(C(C)=O)C(=O)OCC (centres undefined)      label 0
15  CCCCCCCCCCCCCCCC[N+]1(C)CCCC1c1cccnc1 (centres undefined)      label 1
16  Cc1nn(CCO)c(C)c1N=[N+]([O-])c1c(C)nn(CCO)c1C      label 0
17  Cn1c(-c2ccccc2)c(/C=C/C2=[N+](C)c3ccccc3C2(C)C)c2ccccc21      label 1
18    CN=C(N)N/N=C(\C)c1ccc2c(c1)Cc1ccccc1-2      label 1
19                          CCSc1nc2ccccc2o1      label 0
20       CN=C(N)N/N=C(\c1ccccc1)c1ccc(Br)cc1      label 1
21  COc1cccc2c1C(=O)c1c(O)c3c(c(O)c1C2=O)C[C@@](O)(C(=O)CO)C[C@@H]3OC1CC(OC(C)=O)C(OC(C)=O)C(C)O1 (some centres undefined)      label 1
22        CCCCCCCCCCCC[n+]1ccc(CCCCCCCCC)cc1      label 1
23         CCCCCCN(CCCCCC)CCCNc1nccc2ccccc12      label 1
24  CCN(CC)CCNC(Cc1ccccc1)c1ccc(OCc2ccccc2)cc1 (centres undefined)      label 0
25  CCOC(=O)C1=C(C(=O)c2ccccc2)C(c2cccc([N+](=O)[O-])c2)C(C(=O)c2ccccc2)=C(C(=O)OCC)N1      label 0
26  CN(C)c1ccc2cc3c(cc2c1)Oc1ccccc1N3.[Cl][Zn][Cl]      label 0
27  COc1c(C)c2c(c(O)c1C/C=C(\C)CCC(=O)O)C(=O)OC2      label 0
28  NC(CS/C(Cl)=C/Cl)C(=O)O (centres undefined)      label 0
29  O=C(OC12CC3CC(CC(C3)C1)C2)c1ccc(NCc2cc(O)ccc2O)cc1      label 1
30               Oc1cc(Cl)ccc1Cc1ccc(Cl)cc1O      label 0
31                 O=C1C=CC(=O)N1c1ccc(O)cc1      label 0
32       CC/C(=C(/CC)c1ccc(O)cc1)c1ccc(O)cc1      label 0
33             COc1ccc(/C=C2/C(=O)ON=C2C)cc1      label 0
34        O=[N+]([O-])c1ccc2c(c1)Cc1ccccc1-2      label 0
35        CN(C)c1ccc(/C=C/c2nccc3ccccc23)cc1      label 0
36               CCCCCCCCCCCCCCCCSC(=NCC)NCC      label 1
37  COC1=CC(=O)c2c(O)c3c(c(O)c2C1=O)CC(C)(O)OC3 (centres undefined)      label 1
38  O=C(c1ccccc1)N(CCCl)C(=O)N(CCCl)C(=O)c1ccccc1      label 0
39  OC(c1cc2ccc(C(F)(F)F)cc2c2cc(C(F)(F)F)ccc12)C1CCCCN1 (centres undefined)      label 1
40          O=C1C=CC(=O)N1c1cc(Cl)c(Cl)cc1Cl      label 0
41  CCCCCCCCCCCC[N+]1(CCCCCCCCCCCC)CCCC(C)C1 (centres undefined)      label 1
42  CCOc1ccc(C(CN2CCOCC2)C(C)=O)cc1OC (centres undefined)      label 0

----------
Reported growth values for the following compounds.
# Tested on: SW-620 colon
# Experimental Protocol: NCI-60 one-dose screen, 48 h (100 = growth as untreated, 0 = no growth, -100 = all killed)
# Test Conditions: 10 µM unless noted
About 83,000 compounds went through this panel and 20% of them were active in at least one assay; those are over-represented in the sample as a whole.
Observed Property: growth (%)

>>> print(df.to_string())
                                    compound  observed_property  unit_text  readout_value
 0  O=C(c1ccccc1)N(CCCl)C(=O)N(CCCl)C(=O)c1ccccc1             growth          %            110
 1                      Oc1ccccc1N=Cc1ccccc1             growth          %           85.1
 2           O=C(Nc1ccc(Cl)c(Cl)c1)OCc1ccco1             growth          %           40.4
 3              S=C(SSC(=S)N1CCOCC1)N1CCOCC1             growth          %          -57.5
 4  CCCCCCCCC(=O)OCCCC(CCC(CCC1CCCO1)OC(=O)CCCCCCCC)OC(=O)CCCCCCCC (centres undefined)             growth          %           99.8
 5  Cc1onc(-c2ccccc2)c1C(=O)N/N=C/c1cc(Cl)cc(Cl)c1O             growth          %           35.3
 6  C[C@@]1(CO)[C@H](O)CC[C@@]2(C)[C@H]1CC[C@H]1C[C@@H]3C[C@@]12CC[C@@]3(O)COC(=O)CN             growth          %           50.9
 7  CC(=O)C1Cc2ccccc2C1=O (centres undefined)             growth          %            101
 8  COC1=CC(=O)c2c(O)c3c(c(O)c2C1=O)CC(C)(O)OC3 (centres undefined)             growth          %           16.6
 9  CC1(C)OCC(COC(c2ccccc2)(c2ccccc2)c2ccccc2)O1 (centres undefined)             growth          %            104
10                     Cc1cc2cccnc2c2ncccc12             growth          %           31.6
11            CC(C)c1ccc(Nc2n[nH]c(=S)s2)cc1             growth          %            110
12             CCCCCCCCCCCC[n+]1ccc2ccccc2c1             growth          %            -30
13            O=C(c1ccccc1)c1ccc(O)c2ncccc12             growth          %           17.1
14        O=C(CCl)N1c2ccccc2Sc2c1ccc1ccccc21             growth          %           11.1
15  CCN(CC)CCNC(Cc1ccccc1)c1ccc(OCc2ccccc2)cc1 (centres undefined)             growth          %           77.2
16                O=C1c2ccccc2Cc2cccc(Cl)c21             growth          %            112
17             Nc1ccc(C(=O)/C=C/c2ccccc2)cc1             growth          %            103
18                    O=C(Cc1ccccc1)C(F)(F)F             growth          %            108
19  O=C(Cc1nc2cc(Cl)c(Cl)cc2nc1CC(=O)c1ccccc1)c1ccccc1             growth          %           92.6
20              O/N=C1\c2ccccc2-c2ccc(F)cc21             growth          %            112
21                     CCCOS(=O)(=O)c1ccccc1             growth          %            101
22            C(=N\Nc1ccc2ccccc2n1)/c1ccccn1             growth          %           23.5
23  COc1ccc2c(c1)c(CC(=O)O)c(C)n2C(=O)c1ccc(Cl)cc1             growth          %           98.8
24  Oc1c(Cl)cc(Cl)cc1C=NCC1CCC(CN=Cc2cc(Cl)cc(Cl)c2O)CC1 (centres undefined)             growth          %            116
25  CCCCC(C=O)(C=C=C(C)C)CC (centres undefined)             growth          %            106
26  CCOc1ccc(C(C[N+](=O)[O-])Sc2ccccc2N)cc1 (centres undefined)             growth          %          -40.4
27  O=C(c1ccccc1)C(Br)[N+](=O)[O-] (centres undefined)             growth          %           38.8
28                 O=C1C=CC(=O)N1c1ccc(O)cc1             growth          %           95.6
29  COc1cc(OC)c(/C=C/c2c3ccccc3cc[n+]2C)c(OC)c1             growth          %           28.2
30  CCOc1ccc2c(c1)/C(=C\C=C\C1CC(C)C3CC(OCC)CCC3N1CC)CC(C)N2CC (centres undefined)             growth          %           17.1
31              O=C1C=CC(=O)N1c1cccc2c1CCCC2             growth          %           99.6
32        CN(C)c1ccc(/C=C/c2nccc3ccccc23)cc1             growth          %           84.1
33  CCCCC(CCc1ccc([N+](=O)[O-])cc1)(C(C)=O)C(=O)OCC (centres undefined)             growth          %           91.4
34  COc1ccc(C(OCC2OC(n3ccc(NC(=O)c4ccccc4)nc3=O)C(O)C2O)(c2ccccc2)c2ccccc2)cc1 (centres undefined)             growth          %             56
35  COC(=O)Nc1nc2ccc(C3(c4ccc(F)cc4)OCCO3)cc2[nH]1             growth          %           30.7
36  COc1ccc2nc3cc([N+](=O)[O-])ccc3c(NNc3ccccc3)c2c1             growth          %           86.1
37                  CCCCCCCCCCCC1=NCCCN1CCCC             growth          %           97.5
38   CCOC(=O)C1(C)CCCC1N (centres undefined)             growth          %            106
39         Cc1oc2c(C)c3oc(=O)cc(C)c3cc2c1CCl             growth          %           76.7
40       O=C(c1ccc(O)c(Br)c1)c1ccc(O)c(Br)c1             growth          %            109
41  Cc1ccccc1NC(=O)Cc1csc2[n+]1C(=O)/C(=C/c1ccc([N+](=O)[O-])cc1)S2             growth          %            107
42       CN=C(N)N/N=C(\c1ccccc1)c1ccc(Br)cc1             growth          %           29.4
43  CC12CCC(O)CC1=CCC1C2CCC2(C)C3=NN=CC3CC12 (centres undefined)             growth          %            103
44  CC1(C)N=c2cc3c(cc2N1c1ccc(Cl)cc1)=Nc1ccccc1N3c1ccc(Cl)cc1             growth          %           53.5
45   Cc1cc2nc(CC(=O)c3ccncc3)c(=O)[nH]c2cc1C             growth          %            103
46                  CCCCCCCCCCCCNCCCc1ccccc1             growth          %           46.1
47            O=C/C=C/c1ccc([N+](=O)[O-])cc1             growth          %            106
48            CC(C)(C)c1ccc(O)c(-c2ccccc2)c1             growth          %           98.9
